Where do the numbers come from? From the supplement of paper PMC8728848.

# testedTarget: Gal(b1-6)Gal
# methodDescription: glycan array binding signal (z-score within array); higher = stronger binding
# experimentalParameters: glycan notation: IUPAC condensed, linker removed
Shown is part of a subset that was picked to be rich in the strongest signals.
Documented glycan array binding signal (z-score) across a set of binders

[
  {
    "binder": "PpFlo3 (Pichia pastoris) (protein) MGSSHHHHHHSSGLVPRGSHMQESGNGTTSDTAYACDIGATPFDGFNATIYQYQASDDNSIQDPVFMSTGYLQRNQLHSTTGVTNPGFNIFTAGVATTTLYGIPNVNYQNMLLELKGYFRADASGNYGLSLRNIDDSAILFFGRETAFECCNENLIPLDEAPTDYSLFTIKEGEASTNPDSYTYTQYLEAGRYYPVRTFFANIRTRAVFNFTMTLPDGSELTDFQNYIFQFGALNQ",
    "glycan array binding signal (z-score)": -0.281
  },
  {
    "binder": "DCIR1 (Mus musculus), Q9QZ15 (protein) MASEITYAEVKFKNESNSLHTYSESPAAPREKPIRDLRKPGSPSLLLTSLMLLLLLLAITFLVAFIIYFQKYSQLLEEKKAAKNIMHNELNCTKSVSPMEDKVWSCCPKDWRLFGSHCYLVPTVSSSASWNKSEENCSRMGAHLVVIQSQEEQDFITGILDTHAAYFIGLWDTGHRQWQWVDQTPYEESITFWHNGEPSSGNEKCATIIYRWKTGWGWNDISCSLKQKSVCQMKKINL",
    "glycan array binding signal (z-score)": -0.786
  },
  {
    "binder": "Clec12b (Mus musculus), Q149M0 (protein) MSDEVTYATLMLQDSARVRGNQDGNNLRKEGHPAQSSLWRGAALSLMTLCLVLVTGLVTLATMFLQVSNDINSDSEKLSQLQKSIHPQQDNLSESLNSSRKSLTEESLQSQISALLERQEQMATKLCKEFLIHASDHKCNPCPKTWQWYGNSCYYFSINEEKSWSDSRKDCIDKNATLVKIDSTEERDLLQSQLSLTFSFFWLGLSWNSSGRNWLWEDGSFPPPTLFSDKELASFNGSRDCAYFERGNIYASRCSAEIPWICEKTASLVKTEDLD",
    "glycan array binding signal (z-score)": -0.5
  },
  {
    "binder": "MAA (Maackia amurensis), P0DKL3 (protein) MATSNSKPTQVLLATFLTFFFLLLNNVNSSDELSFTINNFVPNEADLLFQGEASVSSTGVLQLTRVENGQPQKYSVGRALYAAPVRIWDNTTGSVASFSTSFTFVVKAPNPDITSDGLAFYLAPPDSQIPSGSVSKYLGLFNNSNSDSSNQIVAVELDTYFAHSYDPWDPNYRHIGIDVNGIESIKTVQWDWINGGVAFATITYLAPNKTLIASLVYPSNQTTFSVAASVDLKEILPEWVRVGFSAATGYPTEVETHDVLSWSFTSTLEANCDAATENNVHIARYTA",
    "glycan array binding signal (z-score)": -0.212
  },
  {
    "binder": "SP15308F-bth-333-19-333 (Bacteroides thetaiotaomicron) (protein) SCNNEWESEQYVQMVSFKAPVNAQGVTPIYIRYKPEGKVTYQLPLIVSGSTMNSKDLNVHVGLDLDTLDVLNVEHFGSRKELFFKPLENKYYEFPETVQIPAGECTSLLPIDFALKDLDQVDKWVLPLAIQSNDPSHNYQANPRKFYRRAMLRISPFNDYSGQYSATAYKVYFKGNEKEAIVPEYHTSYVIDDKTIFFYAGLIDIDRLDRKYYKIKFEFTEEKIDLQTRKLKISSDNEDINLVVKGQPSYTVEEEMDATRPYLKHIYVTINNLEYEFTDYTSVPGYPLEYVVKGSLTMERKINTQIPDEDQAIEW",
    "glycan array binding signal (z-score)": -0.244
  }
]
